The measured values listed here are drawn from paper doi:10.1101/2024.03.05.583629.

binding signal values for the sequences below.
target: pT7_6His-AlfaTag-ZIF268 (human, UniProt P18146 335-423); test: PADIT-seq; conditions: dsDNA, one strand shown
Provide only the numeric value, understood in log2FC.

Examples with answers:
sequenceCode	experimentalTarget	binding signal, log2FC
CTCGAGGATATCAAGATCTGGCCTCGGCGTTTTACGGGGAACCTCTAGCTAGCCGACTCACTATAGGGATAATCGCCCTGAGCAAAGACC	pT7_6His-AlfaTag-ZIF268 (human, UniProt P18146 335-423)	0.0617
CTCGAGGATATCAAGATCTGGCCTCGGCCGCCCATGCGGAACCTCTAGCTAGCCGACTCACTATAGGGATAATCGCCCTGAGCAAAGACC	pT7_6His-AlfaTag-ZIF268 (human, UniProt P18146 335-423)	0.0314
CTCGAGGATATCAAGATCTGGCCTCGGCTTCCCACGCGGAACCTCTAGCTAGCCGACTCACTATAGGGATAATCGCCCTGAGCAAAGACC	pT7_6His-AlfaTag-ZIF268 (human, UniProt P18146 335-423)	0.363
CTCGAGGATATCAAGATCTGGCCTCGGCGCGGATGCGGGAACCTCTAGCTAGCCGACTCACTATAGGGATAATCGCCCTGAGCAAAGACC	pT7_6His-AlfaTag-ZIF268 (human, UniProt P18146 335-423)	0.109
CTCGAGGATATCAAGATCTGGCCTCGGCCGCCCACGAGGAACCTCTAGCTAGCCGACTCACTATAGGGATAATCGCCCTGAGCAAAGACC	pT7_6His-AlfaTag-ZIF268 (human, UniProt P18146 335-423)	0.778

# input Look at this sequence and give its reported binding signal. CTCGAGGATATCAAGATCTGGCCTCGGCTACCCACGCGGAACCTCTAGCTAGCCGACTCACTATAGGGATAATCGCCCTGAGCAAAGACC
# output 0.362

# input Proceed to CTCGAGGATATCAAGATCTGGCCTCGGCTGCCCACGCGGAACCTCTAGCTAGCCGACTCACTATAGGGATAATCGCCCTGAGCAAAGACC
# output 0.958

# input Proceed to CTCGAGGATATCAAGATCTGGCCTCGGCGCGTGCGCGGGAACCTCTAGCTAGCCGACTCACTATAGGGATAATCGCCCTGAGCAAAGACC
# output 0.264

# input Proceed to CTCGAGGATATCAAGATCTGGCCTCGGCGTTTGGGCGGGAACCTCTAGCTAGCCGACTCACTATAGGGATAATCGCCCTGAGCAAAGACC
# output 0.123

# input Proceed to CTCGAGGATATCAAGATCTGGCCTCGGCGCGAGGGCGGGAACCTCTAGCTAGCCGACTCACTATAGGGATAATCGCCCTGAGCAAAGACC
# output 0.751

# input Proceed to CTCGAGGATATCAAGATCTGGCCTCGGCAGTGTAAAAGGAACCTCTAGCTAGCCGACTCACTATAGGGATAATCGCCCTGAGCAAAGACC
# output 0.045

# input Proceed to CTCGAGGATATCAAGATCTGGCCTCGGCCGCCCACCTGGAACCTCTAGCTAGCCGACTCACTATAGGGATAATCGCCCTGAGCAAAGACC
# output 0.259

# input Proceed to CTCGAGGATATCAAGATCTGGCCTCGGCGTTTTAAGTGGAACCTCTAGCTAGCCGACTCACTATAGGGATAATCGCCCTGAGCAAAGACC
# output 0.00666

# input Proceed to CTCGAGGATATCAAGATCTGGCCTCGGCATTTTACAGGGAACCTCTAGCTAGCCGACTCACTATAGGGATAATCGCCCTGAGCAAAGACC
# output 0.116

# input Proceed to CTCGAGGATATCAAGATCTGGCCTCGGCGCGTGGCGGGGAACCTCTAGCTAGCCGACTCACTATAGGGATAATCGCCCTGAGCAAAGACC
# output 0.049

# input Proceed to CTCGAGGATATCAAGATCTGGCCTCGGCGCGATTGCGGGAACCTCTAGCTAGCCGACTCACTATAGGGATAATCGCCCTGAGCAAAGACC
# output 0.187

# input Proceed to CTCGAGGATATCAAGATCTGGCCTCGGCAAGTGGGCGGGAACCTCTAGCTAGCCGACTCACTATAGGGATAATCGCCCTGAGCAAAGACC
# output 2.06

# input Proceed to CTCGAGGATATCAAGATCTGGCCTCGGCCGCCCACGGGGAACCTCTAGCTAGCCGACTCACTATAGGGATAATCGCCCTGAGCAAAGACC
# output 1.11

# input Proceed to CTCGAGGATATCAAGATCTGGCCTCGGCGCGTGGGGCGGAACCTCTAGCTAGCCGACTCACTATAGGGATAATCGCCCTGAGCAAAGACC
# output 0.735

# input Proceed to CTCGAGGATATCAAGATCTGGCCTCGGCGCGTGTGCGGGAACCTCTAGCTAGCCGACTCACTATAGGGATAATCGCCCTGAGCAAAGACC
# output 0.312

# input Proceed to CTCGAGGATATCAAGATCTGGCCTCGGCGTTTTAGCCGGAACCTCTAGCTAGCCGACTCACTATAGGGATAATCGCCCTGAGCAAAGACC
# output 0.0458

# input Proceed to CTCGAGGATATCAAGATCTGGCCTCGGCTTGTGGGCGGGAACCTCTAGCTAGCCGACTCACTATAGGGATAATCGCCCTGAGCAAAGACC
# output 2.19

# input Proceed to CTCGAGGATATCAAGATCTGGCCTCGGCCTTTTAGTGGGAACCTCTAGCTAGCCGACTCACTATAGGGATAATCGCCCTGAGCAAAGACC
# output 0.00894

###

molecular target: pT7_6His-AlfaTag-ZIF268 (human, UniProt P18146 335-423); test: PADIT-seq; conditions: dsDNA, one strand shown
So basically, if binding signal comes in under 0.05 log2FC it's MET, and if it's 0.05 log2FC or more it's NOT MET.

sequenceCode	category
CTCGAGGATATCAAGATCTGGCCTCGGCGCGTGGTCTGGAACCTCTAGCTAGCCGACTCACTATAGGGATAATCGCCCTGAGCAAAGACC	NOT MET
CTCGAGGATATCAAGATCTGGCCTCGGCGCGTGGATGGGAACCTCTAGCTAGCCGACTCACTATAGGGATAATCGCCCTGAGCAAAGACC	MET
CTCGAGGATATCAAGATCTGGCCTCGGCCGCCCAAGTGGAACCTCTAGCTAGCCGACTCACTATAGGGATAATCGCCCTGAGCAAAGACC	MET

# input Dear reviewer, please state whether CTCGAGGATATCAAGATCTGGCCTCGGCAGATGGGCGGGAACCTCTAGCTAGCCGACTCACTATAGGGATAATCGCCCTGAGCAAAGACC has binding signal strictly beneath 0.05 log2FC.
# output MET

# input Proceed to CTCGAGGATATCAAGATCTGGCCTCGGCTTTTTATCGGGAACCTCTAGCTAGCCGACTCACTATAGGGATAATCGCCCTGAGCAAAGACC
# output MET

# input Proceed to CTCGAGGATATCAAGATCTGGCCTCGGCAGCGTAAAAGGAACCTCTAGCTAGCCGACTCACTATAGGGATAATCGCCCTGAGCAAAGACC
# output NOT MET

###

molecular target: pT7_6His-AlfaTag-HOXD13 (human, UniProt P35453 263-343); experiment: PADIT-seq; conditions: dsDNA, one strand shown
Sequence (P35453 263-343): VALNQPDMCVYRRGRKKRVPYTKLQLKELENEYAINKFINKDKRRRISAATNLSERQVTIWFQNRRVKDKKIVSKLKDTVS
binding signal values for the sequences below.
Provide only the numeric value, understood in log2FC.

sequenceCode	reported
CTCGAGGATATCAAGATCTGGCCTCGGCCTTTTACATGGAACCTCTAGCTAGCCGACTCACTATAGGGATAATCGCCCTGAGCAAAGACC	1.85

# input Look at this sequence and give its reported binding signal. CTCGAGGATATCAAGATCTGGCCTCGGCGCGTTGGCGGGAACCTCTAGCTAGCCGACTCACTATAGGGATAATCGCCCTGAGCAAAGACC
# output -1.07

# input Proceed to CTCGAGGATATCAAGATCTGGCCTCGGCCGCCCAGCAGGAACCTCTAGCTAGCCGACTCACTATAGGGATAATCGCCCTGAGCAAAGACC
# output -0.927

# input Proceed to CTCGAGGATATCAAGATCTGGCCTCGGCGTTTTATGCGGAACCTCTAGCTAGCCGACTCACTATAGGGATAATCGCCCTGAGCAAAGACC
# output 2.07

# input Proceed to CTCGAGGATATCAAGATCTGGCCTCGGCGCGTGGAGCGGAACCTCTAGCTAGCCGACTCACTATAGGGATAATCGCCCTGAGCAAAGACC
# output -0.893

# input Proceed to CTCGAGGATATCAAGATCTGGCCTCGGCAAACCACGCGGAACCTCTAGCTAGCCGACTCACTATAGGGATAATCGCCCTGAGCAAAGACC
# output -0.989

# input Proceed to CTCGAGGATATCAAGATCTGGCCTCGGCCCGGTAAAAGGAACCTCTAGCTAGCCGACTCACTATAGGGATAATCGCCCTGAGCAAAGACC
# output 0.409
